This collection of values is drawn from ChEMBL document CHEMBL1140128.

target_entity: Melanocyte-stimulating hormone receptor (Mus musculus, UniProt Q01727)
Sequence (Q01727 whole entry): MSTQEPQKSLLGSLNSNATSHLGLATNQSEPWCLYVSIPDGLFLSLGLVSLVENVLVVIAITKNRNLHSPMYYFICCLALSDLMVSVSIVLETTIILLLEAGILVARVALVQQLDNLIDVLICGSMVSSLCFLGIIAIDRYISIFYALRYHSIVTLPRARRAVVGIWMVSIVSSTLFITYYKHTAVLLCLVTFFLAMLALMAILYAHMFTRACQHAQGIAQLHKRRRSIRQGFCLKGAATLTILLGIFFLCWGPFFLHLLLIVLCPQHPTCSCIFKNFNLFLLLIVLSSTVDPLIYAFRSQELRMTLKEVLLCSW
run_description: Agonist activity at mouse MC1R expressed in HEK293 cells by CRE/beta-galactosidase reporter gene assay
pEC50: −log10 of the molar value.
recorded_endpoint: pEC50

(P) CC(=O)N[C@@H](Cc1cnc[nH]1)C(=O)N[C@H](Cc1ccc(F)cc1)C(=O)N[C@@H](CCCN=C(N)N)C(=O)N[C@@H](Cc1c[nH]c2ccccc12)C(N)=O
(Q) CC(=O)N[C@@H](Cc1cnc[nH]1)C(=O)N[C@H](Cc1ccc(C(=O)c2ccccc2)cc1)C(=O)N[C@@H](CCCNC(=N)N)C(=O)N[C@@H](Cc1c[nH]c2ccccc12)C(N)=O
(R) CC(=O)N[C@@H](Cc1cnc[nH]1)C(=O)N[C@H](Cc1ccc(O)cc1)C(=O)N[C@@H](CCCNC(=N)N)C(=O)N[C@@H](Cc1c[nH]c2ccccc12)C(N)=O
Sort the items above on pEC50, descending. Dear reader, please state the labels in the requested order.
P, Q, R
(P: 7.27, Q: 6.74, R: 5.59)

* * *

target_entity: Melanocortin receptor 3 (Mus musculus, UniProt P33033)
Sequence (P33033 whole entry): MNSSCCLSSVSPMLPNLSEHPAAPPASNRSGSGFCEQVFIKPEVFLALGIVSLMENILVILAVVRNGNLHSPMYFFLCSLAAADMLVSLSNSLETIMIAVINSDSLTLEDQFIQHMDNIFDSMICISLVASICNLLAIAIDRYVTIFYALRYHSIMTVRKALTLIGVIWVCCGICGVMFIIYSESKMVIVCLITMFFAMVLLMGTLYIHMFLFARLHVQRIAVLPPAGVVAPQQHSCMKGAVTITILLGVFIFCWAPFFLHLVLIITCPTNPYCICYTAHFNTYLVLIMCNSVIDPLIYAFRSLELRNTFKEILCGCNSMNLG
run_description: Antagonist activity at mouse MC3R expressed in HEK293 cells assessed as effect on MT2 peptide-induced response by CRE/beta-galactosidase reporter gene assay
recorded_endpoint: Ki (µM)

Observe how each entry below is paired with its result.
molecule	target_entity	recorded_endpoint	reported
CC(=O)N[C@@H](Cc1cnc[nH]1)C(=O)N[C@H](Cc1ccc(C(F)(F)F)cc1)C(=O)N[C@@H](CCCNC(=N)N)C(=O)N[C@@H](Cc1c[nH]c2ccccc12)C(N)=O	Melanocortin receptor 3 (Mus musculus, UniProt P33033)	Ki	6.17
CC(=O)N[C@@H](Cc1cnc[nH]1)C(=O)N[C@H](Cc1ccc(Cl)c(Cl)c1)C(=O)N[C@@H](CCCN=C(N)N)C(=O)N[C@@H](Cc1c[nH]c2ccccc12)C(N)=O	Melanocortin receptor 3 (Mus musculus, UniProt P33033)	Ki	0.26

(1) CC(=O)N[C@H](Cc1cnc[nH]1)C(=O)NC(Cc1ccc2ccccc2c1)C(=O)N[C@@H](CCCNC(=N)N)C(=O)N[C@@H](Cc1c[nH]c2ccccc12)C(N)=O (stereo in doubt)
(2) CC(=O)N[C@@H](Cc1cnc[nH]1)C(=O)N[C@H](Cc1ccc(Br)cc1)C(=O)N[C@@H](CCCNC(=N)N)C(=O)N[C@@H](Cc1c[nH]c2ccccc12)C(N)=O
// compare: 1 vs 2 , metric Ki, want the smaller Reply with the label of the item you choose.
2

* * *

target_entity: UniProt P56450
Sequence (P56450 whole entry): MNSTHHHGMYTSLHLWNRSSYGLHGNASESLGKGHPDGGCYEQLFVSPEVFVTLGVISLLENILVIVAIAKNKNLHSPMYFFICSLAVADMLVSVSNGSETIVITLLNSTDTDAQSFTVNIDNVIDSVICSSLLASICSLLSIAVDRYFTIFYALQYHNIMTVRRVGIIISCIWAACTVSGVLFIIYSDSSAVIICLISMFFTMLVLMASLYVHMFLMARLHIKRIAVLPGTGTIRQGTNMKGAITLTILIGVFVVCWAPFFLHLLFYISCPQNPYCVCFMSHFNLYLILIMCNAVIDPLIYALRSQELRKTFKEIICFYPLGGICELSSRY
run_description: Agonist activity at mouse MC4R expressed in HEK293 cells by CRE/beta-galactosidase reporter gene assay
recorded_endpoint: EC50 (µM)

mol_smiles	unit_tag	reported
CC(=O)N[C@@H](Cc1cnc[nH]1)C(=O)N[C@H](Cc1ccc(C#N)cc1)C(=O)N[C@@H](CCCNC(=N)N)C(=O)N[C@@H](Cc1c[nH]c2ccccc12)C(N)=O	µM	0.00284

(A) CC(=O)N[C@@H](Cc1cnc[nH]1)C(=O)N[C@H](Cc1ccccc1)C(=O)N[C@@H](CCCN=C(N)N)C(=O)N[C@@H](Cc1c[nH]c2ccccc12)C(N)=O
(B) CC(=O)N[C@@H](Cc1cnc[nH]1)C(=O)N[C@H](Cc1ccc(O)cc1)C(=O)N[C@@H](CCCNC(=N)N)C(=O)N[C@@H](Cc1c[nH]c2ccccc12)C(N)=O
(C) CC(=O)N[C@@H](Cc1cnc[nH]1)C(=O)N[C@H](Cc1ccc(C(=O)c2ccccc2)cc1)C(=O)N[C@@H](CCCNC(=N)N)C(=O)N[C@@H](Cc1c[nH]c2ccccc12)C(N)=O
Rank ascending by EC50. Dear reader, please state the labels in the requested order.
A, C, B
(A: 0.00228 µM, C: 0.0638 µM, B: 0.39 µM)
